Molecular target: hM2 receptor (CHO-K1 cells) (Homo sapiens, UniProt P08172)
Construct: expressed in transfected cells; host or cells: CHO-K1 cells
Sequence (P08172 whole entry): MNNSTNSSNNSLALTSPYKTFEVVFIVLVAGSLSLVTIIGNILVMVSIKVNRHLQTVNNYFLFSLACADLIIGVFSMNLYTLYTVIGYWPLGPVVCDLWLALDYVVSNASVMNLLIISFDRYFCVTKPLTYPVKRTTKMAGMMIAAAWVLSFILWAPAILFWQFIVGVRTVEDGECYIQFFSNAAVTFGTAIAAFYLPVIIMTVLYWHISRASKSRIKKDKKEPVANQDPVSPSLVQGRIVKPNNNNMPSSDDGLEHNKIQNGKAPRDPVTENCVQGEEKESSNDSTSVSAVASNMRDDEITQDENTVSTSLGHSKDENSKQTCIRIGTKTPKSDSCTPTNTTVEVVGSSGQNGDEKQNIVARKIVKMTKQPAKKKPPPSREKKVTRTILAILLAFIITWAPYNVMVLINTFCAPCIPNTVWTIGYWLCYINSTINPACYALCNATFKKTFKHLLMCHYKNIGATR
Assay: Blockade of agonist-mediated inhibition of cAMP accumulation
Format: cell-based
Conditions: CHO-K1 cells expressing the hM2 receptor; this or a similar assay; read-out: Ki value for blockade of oxotremorine-inhibition of forskolin-mediated cAMP accumulation
pKi: −log10 of the molar value.
assay-readout: pKi

For the compound shown here, `O=C(CCN1CCC(OC(=O)Nc2ccccc2-c2ccccc2)CC1)NCCCCCNCc1ccc(O)cc1` , give the reported pKi.
> 8.00
